- Tested on: L1210
- Assay Notes: Cytotoxicity against […]resistant mouse leukemia, assessed by MTT assay after 72 h of compound exposure (resistance level)
- Assay type: functional, cell-based
Assay Endpoint: pIC50
Scale for pIC50: -log10 of concentration given in mol/L; no unit attached.

QUERY: I'd like to know its pIC50. The sequence in question is CARBOPLATIN
RESULT: 3.86
